molecular target: Endothelin-1 receptor (Homo sapiens, UniProt P25101); experiment: Inhibition of [125I]ET1 binding to cloned human ET-A receptor
Sequence (P25101 whole entry): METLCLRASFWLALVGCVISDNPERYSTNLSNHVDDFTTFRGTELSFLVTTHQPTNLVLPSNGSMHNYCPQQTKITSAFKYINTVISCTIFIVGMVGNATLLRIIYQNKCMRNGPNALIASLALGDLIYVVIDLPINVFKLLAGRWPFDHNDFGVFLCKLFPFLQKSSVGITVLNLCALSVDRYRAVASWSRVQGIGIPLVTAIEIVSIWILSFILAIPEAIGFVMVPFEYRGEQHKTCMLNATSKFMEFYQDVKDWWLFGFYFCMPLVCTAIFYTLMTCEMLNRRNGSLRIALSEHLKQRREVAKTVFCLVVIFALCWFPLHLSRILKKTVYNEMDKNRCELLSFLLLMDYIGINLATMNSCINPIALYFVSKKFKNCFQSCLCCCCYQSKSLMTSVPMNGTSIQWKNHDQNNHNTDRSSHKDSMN
measurementKind: pKi
Convention used: pKi is expressed as -log10 of the molar concentration.

compound	targetUnderTest	measurementKind	resultNumber
COc1ccc([C@@H]2c3ccccc3[C@H](c3ccc(OC)cc3)[C@H]2C(=O)O)cc1	Endothelin-1 receptor (Homo sapiens, UniProt P25101)	pKi	6.37

// returns reported pKi for input `COc1ccc([C@@H]2c3cc(O)ccc3[C@H](c3ccc4c(c3)OCO4)[C@H]2C(=O)O)cc1`
7.82

Same thing, different compound: CCCOc1ccc2c(c1)[C@@H](c1ccc(OC)cc1OCC(=O)O)[C@H](C(=O)O)[C@H]2c1ccc2c(c1)OCO2 [SB-209670]
9.37

Same thing, different compound: `CCCOc1ccc2c(c1)[C@@H](c1ccc(OC)cc1)[C@H](C(=O)O)[C@H]2c1ccc2c(c1)OCO2`
7.95

Same thing, different compound: `O=C(O)[C@H]1[C@H](c2ccccc2)c2ccccc2[C@@H]1c1ccccc1`
4.95

Same thing, different compound: `COc1ccc([C@H]2c3ccccc3[C@@H](c3ccc4c(c3)OCO4)[C@@H]2C(=O)O)cc1`
7.37

----------
target: Endothelin receptor type B (Homo sapiens, UniProt P24530); assay: Inhibition of [125I]ET1 binding to cloned human ET-B receptor
Sequence (P24530 whole entry): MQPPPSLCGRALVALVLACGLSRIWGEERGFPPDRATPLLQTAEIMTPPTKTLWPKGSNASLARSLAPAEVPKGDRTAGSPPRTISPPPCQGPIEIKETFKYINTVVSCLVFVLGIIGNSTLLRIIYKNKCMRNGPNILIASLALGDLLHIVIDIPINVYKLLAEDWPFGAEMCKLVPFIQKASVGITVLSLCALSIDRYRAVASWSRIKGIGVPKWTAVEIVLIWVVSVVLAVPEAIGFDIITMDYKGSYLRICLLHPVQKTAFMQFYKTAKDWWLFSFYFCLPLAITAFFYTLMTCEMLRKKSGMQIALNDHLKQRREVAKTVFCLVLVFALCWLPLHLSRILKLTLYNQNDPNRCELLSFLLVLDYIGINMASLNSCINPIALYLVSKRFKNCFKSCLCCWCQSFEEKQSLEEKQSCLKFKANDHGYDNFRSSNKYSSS
measurementKind: pKi
Convention used: pKi is expressed as -log10 of the molar concentration.

// returns reported pKi for input `CCCOc1ccc2c(c1)[C@@H](c1ccc(OC)cc1)[C@H](C(=O)O)[C@H]2c1ccc2c(c1)OCO2`
5.98
